This listing pairs molecules with measured viability, T/C.
- Tested on: 843782-103-R-J1-PDC complex spheroid viability;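 note: viability read after seven days of compound exposure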
- test-name: Anticancer human tumor 843782-103-R-J1-PDC patient-derived lung adenocarcinoma cell line growth inhibition [RAS]
- condition-set: second compound 10 µM; first compound 0.00316 µM; stronger effect = lower value
- Source text: RAS pathway inhibitors in Combinations in Complex Spheroids A high-throughput screen of multi-cell type tumor spheroids was designed to identify active combinations of RAS pathway inhibitors and targeted small molecules. Complex spheroids include a stromal component modeled by human endothelial cells (HUVEC) and fibroblasts modeled by human mesenchymal stem cells (MSCs). […] Compounds. […] If the clinical Cmax for an agent had not been determined, the highest concentration tested was 10 microM. […]
Write the number in % without appending the unit.

Please review the following examples before continuing.
CC(C)n1nc(-c2ccc3oc(N)nc3c2)c2c(N)ncnc21 + C#Cc1c(F)ccc2cc(O)cc(-c3ncc4c(N5CC6CCC(C5)N6)nc(OCC56CCCN5CC(F)C6)nc4c3F)c12 : 38.5
Nc1ccn(C2OC(CO)C(O)C2(F)F)c(=O)n1 (stereo not drawn) + C#Cc1c(F)ccc2cc(O)cc(-c3ncc4c(N5CC6CCC(C5)N6)nc(OCC56CCCN5CC(F)C6)nc4c3F)c12 : 64.6

Consider the record given below.
Would you kindly share the measured viability, T/C for O=C(c1ccc(F)c(F)c1Nc1ccc(I)cc1F)N1CC(O)([C@@H]2CCCCN2)C1 + C#Cc1c(F)ccc2cc(O)cc(-c3ncc4c(N5CC6CCC(C5)N6)nc(OCC56CCCN5CC(F)C6)nc4c3F)c12 ?
56.3
